Values compiled from ChEMBL document CHEMBL4732090.

Test system: Trypanosoma brucei rhodesiense
Assay: Trypanocidal activity against Trypanosoma brucei rhodesiense STIB900 incubated for 70 hrs by Alamar blue assay
Type: functional, organism-based
Settings: STIB900, 70 h
Task for the reader: assign each of the following compounds its reported log10 IC50.
Friendly reminder: values = log10 of IC50, unit nM.

The compound listed as CC1(C)C(Cc2ccccc2)C(=[N+]2CCCC2)C=CN1Cc1ccc(Cl)cc1 (racemic) has a reported log10 IC50 of 2.08

The compound listed as CC1(C)C(Cc2ccc(C#N)cc2)C(=[N+]2CCCC2)C=CN1Cc1ccccc1 (stereo not given) has a reported log10 IC50 of 4.04

The compound listed as CC(C)c1ccc(CC2C(=[N+]3CCCC3)C=CN(Cc3ccccc3)C2(C)C)cc1 (racemic) has a reported log10 IC50 of 1.62

The compound listed as CC1(C)C(Cc2ccccc2)C(=[N+]2CCCC2)C=CN1Cc1ccc([N+](=O)[O-])cc1 (racemic) has a reported log10 IC50 of 3.01

The compound listed as CC1(C)C(Cc2ccc(Cl)cc2)C(=[N+]2CCCCC2)C=CN1Cc1ccc(Cl)cc1 (racemic) has a reported log10 IC50 of 2.15
